System: HT-29
assay: NCI tumour cell line growth inhibition, 48 h
The source made the active and inactive calls. Rule as the data show it: active = GI50 up to about 1.1 µM and inactive = higher.
measuredParameter: GI50

compound	measuredParameter	result
C[N+](C)(C)CC(=O)N/N=C/c1ccncc1	GI50	> 100 µM (inactive)
O=C(O)C1=CN(c2ccncc2)C(c2ccco2)=CC1c1ccccc1[N+](=O)[O-] (centres undefined)	GI50	2.13 µM (inactive)
NCCCC[C@H](N)C(=O)Nc1ccc(-c2nc3ccccc3s2)cc1	GI50	16.5 µM (inactive)
c1ccc2c(c1)C(=Nc1ccc(N=C3c4ccccc4-c4ccccc43)cc1)c1ccccc1-2	GI50	> 100 µM (inactive)

Record `Cc1c2c(n(CCc3ccccc3)c1C)NN=C(C#N)S2(=O)=O` . Reported GI50: > 100 µM (inactive)

Record COc1ccccc1C12OC(=O)C1(C)Oc1ccccc1C2=O (centres undefined) . Reported GI50: > 100 µM (inactive)

----------
System: KM-20L2
assay: NCI tumour cell line growth inhibition, 48 h
Calls of active or inactive are those of the source. Rule as the data show it: active = GI50 up to about 1.1 µM and inactive = higher.
measuredParameter: GI50

Some molecules with recorded GI50:
molecule	measuredParameter	result
Oc1ccc(Br)cc1/C=N/c1ccc(Oc2ccc(/N=C/c3cc(Br)ccc3O)cc2)cc1	GI50	> 19.6 µM (inactive)
NC1=NN(c2ccccc2)C(=O)C1/C(=N\NC(=O)c1cc2ccccc2cc1O)C(=O)Nc1ccc(Cl)cc1 (stereo unspecified)	GI50	32.7 µM (inactive)
C=C(c1nc2ccc(Cl)cc2[nH]c1=O)C(O)c1ccc(C(O)C(=O)c2nc3ccc(Cl)cc3[nH]c2=O)cc1 (stereo unspecified)	GI50	62.4 µM (inactive)
O=[N+]([O-])c1ccc(N2C[N+](c3ccccc3)=NC(c3ccccc3)=N2)cc1	GI50	31.9 µM (inactive)
CCCCCCCCCCCC(=O)OCC1OC(n2cc(F)c(=O)[nH]c2=O)C(N)C(OC(=O)CCCCCCCCCCC)C1O (stereo unspecified)	GI50	> 100 µM (inactive)

Here's the next entry for you.
Record `O=C(CSc1nnc(-c2ccc(/N=C\c3ccc(Cl)cc3)cc2)o1)Nc1ccccc1[N+](=O)[O-]` . Reported GI50: > 100 µM (inactive)

----------
System: RXF 393
assay: NCI tumour cell line growth inhibition, 48 h
Active and inactive are the calls of the source. Rule as the data show it: active = GI50 up to about 1.1 µM and inactive = higher.
Return exactly one item of Yes for active, No for inactive

# count of solved cases: 3
molecule	testTarget	assignedClass
CCOC(=O)c1cc2c3c(c(C(C)=O)c(OC)c2[nH]1)N(C(=O)CC)CC3	RXF 393	No
O=C(O)c1cccc(S(=O)(=O)NN2C(=O)CSC2c2ccccc2Cl)c1 (configuration not stated)	RXF 393	No
O=c1nc(NC(c2ccccc2)(c2ccccc2)c2ccccc2)ccn1CCNCCn1ccc(NC(c2ccccc2)(c2ccccc2)c2ccccc2)nc1=O	RXF 393	No

Please share the test call associated with `CC(C)(CN1CCCCC1)C(=O)/C=C/c1ccc(/C=C/C(=O)C(C)(C)CN2CCCCC2)cc1` .
Yes

----------
Tested on: XF498
assay: NCI tumour cell line growth inhibition, 48 h
Activity calls are given as the source filed them. Cut-off read from the data, not from the text of the source: active = GI50 up to about 1.1 µM and inactive = higher.
Recorded GI50 by entry

Some compounds with recorded GI50:
compound	GI50
O=C(NC1C2CC3CC(C2)CC1C3)/C(Cl)=C1/Sc2ccccc2NC1=O (configuration not stated)	> 100 µM (inactive)
CCOC(=O)C(=O)Nc1c(C)cccc1C	> 100 µM (inactive)
COC(=O)C(C(=O)c1ccccc1)C(C(=O)C(=O)Nc1ccc(OC)cc1OC)C(=O)C(=O)c1ccc(C)cc1 (configuration not stated)	> 100 µM (inactive)
C[C@@]12CCC(=O)c3coc(c31)C(=O)c1cc3c(cc12)C(=O)C=CC3=O	18.9 µM (inactive)
O=C1/C(=C/c2ccccc2Cl)COc2ccccc21	15.6 µM (inactive)

Here's the next entry for you.
Record `CCOC(=O)/C(Br)=C1\OC(=O)c2ccccc2-c2ccccc21` . Reported GI50: 65.8 µM (inactive)

----------
Recorded GI50 by entry
System: OVCAR-3
assay: NCI tumour cell line growth inhibition, 48 h
Calls of active or inactive are those of the source. Cut-off read from the data, not from the text of the source: active = GI50 up to about 1.1 µM and inactive = higher.

Some compounds with recorded GI50:
compound	GI50
CC1=C(C(=O)CC(=O)C(=O)Nc2ccccc2C)Sc2ccccc2N1	> 100 µM (inactive)
CCO/C([O-])=C(\C(=O)c1ccc([N+](=O)[O-])cc1)[n+]1c(C)n(C)c2ccccc21	> 100 µM (inactive)
CC1=C(/C=C/C(C)=C/C=C/C(C)=C/C(=O)OC2CC(n3cc(F)c(=O)[nH]c3=O)OC2CO)C(C)(C)CCC1 (stereo not given)	4.72 µM (inactive)
C=CC(OC(C)=O)c1ccc(OC(C)=O)cc1 (stereo not given)	6.11 µM (inactive)
O=C(Nc1nnc(S)[nH]1)C(=O)C(c1cnc2ccc([N+](=O)[O-])cc2n1)[N+](=O)[O-] (stereo not given)	> 100 µM (inactive)

Record `Brc1ccc2[nH]cc(-c3csc(-c4c[nH]c5ccccc45)n3)c2c1` . Reported GI50: 3.01 µM (inactive)

Record `O=C(Cc1ccc2ccccc2c1)NCc1ccc(C(=O)NCCc2ccccc2)cc1` . Reported GI50: > 100 µM (inactive)

Record `CSCCCNC(=O)c1csc(-c2csc(CCNC(=O)CNC(=O)CNC(=O)OC(C)(C)C)n2)n1` . Reported GI50: > 100 µM (inactive)

----------
Test system: MOLT-4
assay: NCI tumour cell line growth inhibition, 48 h
Active and inactive are the calls of the source. Rule as the data show it: active = GI50 up to about 1.1 µM and inactive = higher.
Return exactly one item of active, inactive

# count of solved cases: 6
molecule	assignedClass
CC(C)C(=O)CC(Sc1ccc(N)cc1)c1ccccc1 (configuration not stated)	inactive
COc1cc2ccc(C(C)NCC#N)cc2cc1OC (configuration not stated)	inactive
COc1ccc(N2C(=O)C3CC(c4ccc(Br)cc4)c4c([nH]c5ccccc45)C3C2=O)cc1 (configuration not stated)	inactive
COc1ccc(/C=C\c2cc(OC)c(OC)c(OC)c2)cc1	active
CC(C)CCCC(C)[C@H]1CC[C@H]2n3c(nc4ccccc43)CCC[C@]12C (some centres not stated)	inactive
CN1C(=O)c2ccccc2NC(=O)c2cnn(C)c21	inactive

Please share the test call associated with `CC(=O)c1nc(C#N)c(N)o1` .
inactive

Please share the test call associated with CC(=O)OCC1OC(n2nc(Cc3ccccc3)c(=S)[nH]c2=S)C(OC(C)=O)C(OC(C)=O)C1OC(C)=O (configuration not stated) .
inactive

Please share the test call associated with `CN(C)/C=C/c1c2c(nc3ccccc13)C(=O)c1ccccc1C2=O` .
active

Please share the test call associated with O=C1CCCc2cc3c(cc21)CCC3C(=O)O (configuration not stated) .
inactive

Please share the test call associated with `O=C(O)COc1cc(-c2ccccc2F)nc2cc3c(cc12)OCO3` .
inactive

Please share the test call associated with `CN(C)CCC(/C=C/c1ccccc1)=N\Nc1ccc(Cl)cc1Cl` .
inactive

Please share the test call associated with `Cc1nc2ccccc2c(=O)[nH]1` .
inactive

Please share the test call associated with `COc1ccc(C2=Nn3c(nnc(Cc4ccc(Cl)cc4)c3=O)SC2)cc1` .
inactive

Please share the test call associated with COc1ccc(C2SC(=N)Nc3c2c(C)nn3C(=O)c2ccccc2O)cc1 (configuration not stated) .
inactive

Please share the test call associated with `COc1cc(/C=C/c2ccc(OC)c(O)c2)cc(OC)c1` .
inactive

Please share the test call associated with `CCOC(=O)CC[C@H](NC(=O)c1nc[nH]c1[N+](=O)[O-])C(=O)OCC` .
inactive

Please share the test call associated with `Brc1ccc2[nH]cc(-c3csc(-c4c[nH]c5ccccc45)n3)c2c1` .
inactive

Please share the test call associated with `O=C(c1ccccc1Cl)n1oc2ccccc2c1=O` .
inactive

Please share the test call associated with CSc1ncnc2c1ncn2CC(=O)C1CCC2C3CCC4=CC(=O)CCC4(C)C3CCC12C (configuration not stated) .
inactive

Please share the test call associated with `COC(=O)c1ccccc1/C=C1/Cc2cccc(C)c2C1=O` .
inactive

Please share the test call associated with COC1CCC(OC2CC(C3(C)CCC4(CC(O)C(C)C(C(C)/C=C(\C)C(=O)C(C)CC(C)C(=O)O)O4)O3)OC3(OC(C4OC(O)(CO)C(C)CC4C)CC3C)C2C)OC1C (configuration not stated) .
active

----------
Recorded GI50 by entry
Tested on: MDA-MB-231
assay: NCI tumour cell line growth inhibition, 48 h
Activity calls are given as the source filed them. Cut-off read from the data, not from the text of the source: active = GI50 up to about 1.1 µM and inactive = higher.

Some compounds with recorded GI50:
compound	measuredParameter	result
c1ccc2c(c1)C(=Nc1ccc(N=C3c4ccccc4-c4ccccc43)cc1)c1ccccc1-2	GI50	> 100 µM (inactive)
C=CC(OC(C)=O)c1ccc(OC(C)=O)cc1 (stereo not given)	GI50	3.3 µM (inactive)
C[N+](C)(C)CC(=O)N/N=C/c1ccncc1	GI50	> 100 µM (inactive)
COC(C)(C)/C=C/c1[nH]c2ccccc2c1CC(=O)NCCc1cn(C(c2ccccc2)(c2ccccc2)c2ccccc2)cn1	GI50	4.72 µM (inactive)

Here's the next entry for you.
Record `CN(c1ccccc1Cl)S(=O)(=O)c1ccc([N+](=O)[O-])cc1` . Reported GI50: > 100 µM (inactive)
